Biological target: T1, LAG-3-hFc protein (human LAG-3 extracellular region with hFc tag) (human, UniProt P18627 23-450)
T1 construct: also called hLAG-3-hFc; LAG-3 protein; not shown: human IgG Fc fragment (hFc) of the pCpC vector
T1 sequence: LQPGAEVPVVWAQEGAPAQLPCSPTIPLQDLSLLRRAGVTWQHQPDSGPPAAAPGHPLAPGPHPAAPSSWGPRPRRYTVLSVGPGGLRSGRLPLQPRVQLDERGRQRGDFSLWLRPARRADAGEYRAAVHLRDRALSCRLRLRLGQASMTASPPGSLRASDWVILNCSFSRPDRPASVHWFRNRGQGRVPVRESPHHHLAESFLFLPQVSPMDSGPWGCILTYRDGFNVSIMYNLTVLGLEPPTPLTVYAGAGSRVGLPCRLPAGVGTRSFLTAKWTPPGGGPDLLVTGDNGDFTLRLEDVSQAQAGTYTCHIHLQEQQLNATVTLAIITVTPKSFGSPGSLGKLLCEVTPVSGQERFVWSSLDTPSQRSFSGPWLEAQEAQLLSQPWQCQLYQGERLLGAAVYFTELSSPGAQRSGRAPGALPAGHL
Test: FACS, inhibition of LAG-3-hFc binding to MHC II on Raji cells, antibody 22.222 nM
Metric name: Inhibition rate (%)
// return numeric value only (unit: %, not printed)

// Inhibition rate (%) value for 405B8H3 mouse-human chimeric antibody (antibody, V domains shown, also called mAb103-405B8H3) VH: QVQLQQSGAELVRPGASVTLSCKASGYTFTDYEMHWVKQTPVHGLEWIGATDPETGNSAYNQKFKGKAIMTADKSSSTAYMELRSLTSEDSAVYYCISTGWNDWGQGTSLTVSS VL: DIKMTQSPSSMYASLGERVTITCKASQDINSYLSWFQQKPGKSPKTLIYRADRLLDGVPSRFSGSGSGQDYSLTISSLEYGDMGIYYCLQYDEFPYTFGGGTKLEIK : 95.7
